Molecular target: recombinant soluble homotrimeric HA, A/northern shoveler/California/HKWF115/2007 (H6N1) (influenza A virus A/northern shoveler/California/HKWF115/2007 (H6N1))
Experiment: microarray, trimeric HA, transfection supernatant
Conditions: remark: other sources report otherwise
We'd kindly ask you to apply these Trimeric HA Binding RLU classes: bin A: < 9000 RLU; bin B: ≥ 9000 RLU and < 30000 RLU; bin C: ≥ 30000 RLU

binder="TCN-555 (5246_L16) (antibody, V domains shown) VH: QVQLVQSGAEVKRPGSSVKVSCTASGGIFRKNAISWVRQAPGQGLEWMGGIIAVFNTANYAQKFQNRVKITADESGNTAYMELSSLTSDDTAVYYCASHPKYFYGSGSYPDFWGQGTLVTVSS VL: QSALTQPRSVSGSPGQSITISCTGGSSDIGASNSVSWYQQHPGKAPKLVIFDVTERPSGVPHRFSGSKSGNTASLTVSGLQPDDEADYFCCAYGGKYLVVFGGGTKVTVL" category_label="bin B"
binder="TCN-557 (5081_A04) (antibody, V domains shown) VH: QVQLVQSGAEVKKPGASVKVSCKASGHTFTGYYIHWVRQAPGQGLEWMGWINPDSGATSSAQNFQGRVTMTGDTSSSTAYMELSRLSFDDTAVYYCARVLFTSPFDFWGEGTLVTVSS VL: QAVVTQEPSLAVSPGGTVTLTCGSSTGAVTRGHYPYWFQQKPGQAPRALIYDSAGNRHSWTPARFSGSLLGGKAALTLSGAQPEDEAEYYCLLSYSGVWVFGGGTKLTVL" category_label="bin C"
binder="TCN-542 (5079_A16) (antibody, V domains shown) VH: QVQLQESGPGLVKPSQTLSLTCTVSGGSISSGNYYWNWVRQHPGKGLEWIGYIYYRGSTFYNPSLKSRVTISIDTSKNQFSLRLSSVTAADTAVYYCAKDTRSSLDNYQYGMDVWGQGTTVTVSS VL: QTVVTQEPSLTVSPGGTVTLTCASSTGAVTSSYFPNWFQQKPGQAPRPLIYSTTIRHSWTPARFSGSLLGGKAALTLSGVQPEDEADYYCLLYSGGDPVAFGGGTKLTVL" category_label="bin A"
binder="TCN-553 (5261_C18) (antibody, V domains shown) VH: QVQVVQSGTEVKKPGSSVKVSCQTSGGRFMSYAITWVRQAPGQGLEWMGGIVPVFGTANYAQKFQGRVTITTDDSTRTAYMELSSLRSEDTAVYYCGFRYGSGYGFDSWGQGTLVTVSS VL: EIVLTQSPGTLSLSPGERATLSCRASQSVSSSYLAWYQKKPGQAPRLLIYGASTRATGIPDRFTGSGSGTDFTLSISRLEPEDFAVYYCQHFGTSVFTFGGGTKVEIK" category_label="bin C"
binder="TCN-552 (5249_I23) (antibody, V domains shown) VH: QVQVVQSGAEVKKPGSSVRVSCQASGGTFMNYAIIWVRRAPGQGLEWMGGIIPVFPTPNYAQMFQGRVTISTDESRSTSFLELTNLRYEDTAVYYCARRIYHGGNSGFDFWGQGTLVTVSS VL: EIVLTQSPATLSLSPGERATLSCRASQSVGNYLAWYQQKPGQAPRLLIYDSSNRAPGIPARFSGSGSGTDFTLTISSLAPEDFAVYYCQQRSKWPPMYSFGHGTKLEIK" category_label="bin C"
binder="TCN-534 (5249_B02) (antibody, V domains shown) VH: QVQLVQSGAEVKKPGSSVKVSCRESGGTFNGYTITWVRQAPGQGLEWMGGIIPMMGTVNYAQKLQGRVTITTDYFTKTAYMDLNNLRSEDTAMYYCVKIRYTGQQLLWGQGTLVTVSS VL: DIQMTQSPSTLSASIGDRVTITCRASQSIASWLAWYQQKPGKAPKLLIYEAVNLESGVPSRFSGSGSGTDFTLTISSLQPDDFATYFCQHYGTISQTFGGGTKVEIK" category_label="bin B"
binder="TCN-535 (5246_P19) (antibody, V domains shown) VH: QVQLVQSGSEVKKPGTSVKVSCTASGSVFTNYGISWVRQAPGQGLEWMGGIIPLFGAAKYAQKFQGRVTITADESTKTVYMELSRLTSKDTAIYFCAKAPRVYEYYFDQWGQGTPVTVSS VL: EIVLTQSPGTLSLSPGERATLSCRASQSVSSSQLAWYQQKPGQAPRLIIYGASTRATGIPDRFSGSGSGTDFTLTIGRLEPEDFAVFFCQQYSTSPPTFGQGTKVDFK" category_label="bin B"
binder="TCN-539 (5056_A08) (antibody, V domains shown) VH: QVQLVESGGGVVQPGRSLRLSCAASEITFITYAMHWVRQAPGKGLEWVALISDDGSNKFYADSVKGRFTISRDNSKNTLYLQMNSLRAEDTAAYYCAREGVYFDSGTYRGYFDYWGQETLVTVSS VL: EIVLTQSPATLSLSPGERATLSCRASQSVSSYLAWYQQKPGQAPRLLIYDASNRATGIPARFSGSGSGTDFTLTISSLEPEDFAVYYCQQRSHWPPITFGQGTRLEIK" category_label="bin A"
binder="TCN-550 (5096_F06) (antibody, V domains shown) VH: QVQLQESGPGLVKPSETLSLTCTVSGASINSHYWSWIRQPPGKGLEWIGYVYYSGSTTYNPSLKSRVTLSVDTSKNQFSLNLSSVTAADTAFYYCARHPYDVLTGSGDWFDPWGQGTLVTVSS VL: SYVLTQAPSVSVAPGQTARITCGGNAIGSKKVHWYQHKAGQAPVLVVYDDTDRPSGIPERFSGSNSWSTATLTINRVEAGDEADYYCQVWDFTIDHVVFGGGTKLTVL" category_label="bin A"

Entry source: patent US20150104459A1
